Sourced from PubChem BioAssay (NCATS)

We begin with a simple list: items and their reported activity, negative = inhibition.
# assay_explanation: Stat Signaling Pathway (AID 446);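 also: ME-180 cervical cancer cells given 40 pM IL-6 alongside compound; SIE-controlled beta-lactamase reporter measured as 460/530 nm FRET emission ratio; % is scaled to controls: 0 for no effect and ±100 for the full control effect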
# recorded_conditions: ME-180 (cervical carcinoma) SIE beta-lactamase reporter, IL-6 stimulated, 5 h; at 38 µM (top of the series)
Inconclusive results are not listed.
// return numeric value only (unit: %, not printed)

Study these solved cases before continuing.
# smiles, activity, negative = inhibition [%]
records = [
    ("O=C(O)/C=C\\c1ccc(O)c(O)c1", 10.1),
    ("CCCN(CCC)C(=O)[C@@H](CCC(=O)O)NC(=O)c1ccccc1", -1.87),
    ("NC(=O)c1cc[n+](CC2=C(C(=O)O)N3C(=O)[C@@H](NC(=O)[C@H](c4ccccc4)S(=O)(=O)[O-])[C@@H]3SC2)cc1", 0.148),
]

Qu. Can you share its activity, negative = inhibition? I mean this compound: `CC(=O)OCC1=C(C(=O)O)N2C(=O)[C@@H](NC(=O)CSc3ccncc3)[C@@H]2SC1`
Ans. -9.45

Qu. What does the data say about its activity, negative = inhibition? Entry: `C[C@@]12C[C@@H](O)[C@H]3[C@@H](CCC4=CC(=O)CC[C@]43C)[C@H]1CC[C@H]2C(=O)CO`
Ans. -1.77

Qu. Param item = `C[C@@H](CN(C)C)CN1c2ccccc2CCc2ccccc21` ; retrieve measured activity, negative = inhibition.
Ans. -7

Qu. What measured activity, negative = inhibition goes with `N[C@H](C(=O)N[C@@H]1C(=O)N2C(C(=O)O)=C(Cl)CS[C@@H]12)c1ccccc1` ?
Ans. 22.7

Qu. What does the record list as activity, negative = inhibition for `COc1ccc([C@H]2Sc3ccccc3N(CCN(C)C)C(=O)[C@H]2OC(C)=O)cc1` ?
Ans. 7.22

Qu. What value of measured activity, negative = inhibition is listed for `CC[C@]1(C)CC(=O)NC1=O` ?
Ans. 10.7

Qu. Returns the measured activity, negative = inhibition for the input compound. Input: `COCCc1ccc(OC[C@H](O)CNC(C)C)cc1`
Ans. 13.4

Qu. What does the data say about its activity, negative = inhibition? Entry: `CC(C)(C)NC[C@H](O)c1cc(O)cc(O)c1`
Ans. 3.91
